Tested on: OVCAR-3 ovarian
Assay: NCI-60 one-dose screen, 48 h
Settings: 10 µM unless noted
About 83,000 compounds went through this panel and 20% of them were active in at least one assay; those are over-represented in the sample as a whole. Calls of active or inactive are those of the source. How the source made its calls: active means growth percent below 10; inactive means the rest.
Outcomes you can answer with include only these: 1 (active), -1 (inactive)

Take a look at these entries with their results.
[
  {
    "COMPOUND": "N#C[Se]Cc1cc(-c2ccccc2)n(-c2ccc(S(N)(=O)=O)cc2)n1",
    "GROUP_LABEL": 1
  },
  {
    "COMPOUND": "CCCCCCCCCCCCCCCCCC1OC[C@@H](COC(=O)O[C@@H](C(=O)O[C@H]2C[C@@]3(O)[C@@H](OC(=O)c4ccccc4)[C@@H]4[C@]5(OC(C)=O)CO[C@@H]5C[C@H](O)[C@@]4(C)C(=O)[C@H](OC(C)=O)C(=C2C)C3(C)C)[C@@H](NC(=O)c2ccccc2)c2ccccc2)O1 (stereo partly drawn)",
    "GROUP_LABEL": -1
  }
]

Let us examine a further case.
q: Write down the call the test reported for this compound. Item: C[C@]12CCc3sc(-c4ccccc4O)nc3C1=CC[C@@H]1[C@@H]2CC[C@]2(C)C(=O)CC[C@@H]12
a: -1
